All values here come from the supplement of paper PMC10567573.

B1: C22orf15 (parent)
chain: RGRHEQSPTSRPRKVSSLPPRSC

variants of: B1; test: protein stability index of a GFP-peptide fusion (GPS, HEK-293T) (PSI 1-6); higher = more stable; settings: c terminus: native;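 note: lentivirally expressed fusions sorted by FACS into six bins by GFP to DsRed ratio, PSI derived from sequencing read proportions per bin multiplied by bin number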

{"mutation_spec": "T9C", "protein stability index": 1.52}
{"mutation_spec": "R11N", "protein stability index": 2.35}
{"mutation_spec": "P8N", "protein stability index": 2.71}
{"mutation_spec": "K14I", "protein stability index": 2.67}
{"mutation_spec": "Q6S", "protein stability index": 1.79}
{"mutation_spec": "S17P", "protein stability index": 3.73}
{"mutation_spec": "P8C", "protein stability index": 3.78}
{"mutation_spec": "V15Q", "protein stability index": 2.22}
{"mutation_spec": "S17R", "protein stability index": 3.79}
{"mutation_spec": "P19D", "protein stability index": 3.23}
{"mutation_spec": "S22H", "protein stability index": 4.07}
{"mutation_spec": "P8H", "protein stability index": 3.48}
{"mutation_spec": "H4V", "protein stability index": 2.38}
{"mutation_spec": "L18I", "protein stability index": 2.76}
{"mutation_spec": "V15D", "protein stability index": 1.97}
{"mutation_spec": "S7Y", "protein stability index": 2.32}
{"mutation_spec": "P19V", "protein stability index": 2.86}
{"mutation_spec": "S10A", "protein stability index": 1.64}
{"mutation_spec": "E5R", "protein stability index": 2.19}
{"mutation_spec": "R21E", "protein stability index": 5.2}
{"mutation_spec": "R21F", "protein stability index": 4.25}
{"mutation_spec": "R21N", "protein stability index": 4.68}
